From: ChEMBL document CHEMBL4680183

biological target: Histone deacetylase 1 (Homo sapiens, UniProt Q13547); experiment: Inhibition of HDAC1 in human RPMI-8226 cells incubated for 2 hrs by ELISA
Sequence (Q13547 whole entry): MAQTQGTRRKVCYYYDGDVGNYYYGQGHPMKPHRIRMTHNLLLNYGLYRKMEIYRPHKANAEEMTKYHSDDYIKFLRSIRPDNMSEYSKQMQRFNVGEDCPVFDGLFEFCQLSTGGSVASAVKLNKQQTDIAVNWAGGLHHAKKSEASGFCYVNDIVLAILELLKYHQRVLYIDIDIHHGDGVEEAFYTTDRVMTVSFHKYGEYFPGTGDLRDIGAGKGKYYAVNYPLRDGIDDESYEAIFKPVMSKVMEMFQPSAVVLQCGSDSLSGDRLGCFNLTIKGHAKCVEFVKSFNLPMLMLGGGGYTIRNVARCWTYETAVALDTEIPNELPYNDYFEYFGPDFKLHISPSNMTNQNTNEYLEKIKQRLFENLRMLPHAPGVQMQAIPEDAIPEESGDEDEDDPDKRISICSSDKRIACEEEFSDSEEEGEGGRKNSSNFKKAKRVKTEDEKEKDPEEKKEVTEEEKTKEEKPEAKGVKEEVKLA
In this section, each of the molecules is paired with its reported IC50.

1) CC(C)C[C@H](NC(=O)[C@H](Cc1ccccc1)NC(=O)c1cnccn1)B(O)O 620 nM

Lab note: next molecule to report on.
(Q) Form field: reported IC50 of `COc1ccc(/C=C/C(=O)c2nnn(-c3ccc(Cl)cc3)c2C)cc1OC`
(A) 1530 nM

====

In this section, each of the molecules is paired with its reported IC50.
molecular target: Histone deacetylase 2 (Homo sapiens, UniProt Q92769); test: Inhibition of HDAC2 in human RPMI-8226 cells incubated for 2 hrs by ELISA
Sequence (Q92769 whole entry): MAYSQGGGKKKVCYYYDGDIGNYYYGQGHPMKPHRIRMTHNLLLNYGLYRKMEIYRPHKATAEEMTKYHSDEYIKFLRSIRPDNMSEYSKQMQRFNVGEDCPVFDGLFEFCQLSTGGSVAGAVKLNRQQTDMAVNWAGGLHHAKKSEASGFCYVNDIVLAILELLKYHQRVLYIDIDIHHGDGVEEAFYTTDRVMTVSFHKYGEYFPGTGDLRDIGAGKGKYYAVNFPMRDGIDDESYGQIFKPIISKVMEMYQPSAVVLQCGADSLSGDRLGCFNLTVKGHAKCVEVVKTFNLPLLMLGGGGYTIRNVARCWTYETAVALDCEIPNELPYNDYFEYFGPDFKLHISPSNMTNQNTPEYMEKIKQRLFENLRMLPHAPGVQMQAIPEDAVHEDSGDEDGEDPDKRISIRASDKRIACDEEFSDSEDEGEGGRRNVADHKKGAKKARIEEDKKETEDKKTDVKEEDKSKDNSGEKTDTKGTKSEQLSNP
Write it as a number; the unit nM goes unstated.

1) CC(C)C[C@H](NC(=O)[C@H](Cc1ccccc1)NC(=O)c1cnccn1)B(O)O 800

Lab note: next molecule to report on.
(Q) Form field: reported IC50 of `COc1ccc(/C=C/C(=O)c2nnn(-c3ccc(Cl)cc3)c2C)cc1OC`
(A) 2900
